meta.source: patent US20180201592A1

System: A. terreus 49
Test: Minimum inhibitory concentration, YAG medium
Type: cell-based, Aspergillus terreus
Details: banded MIC grade
Method: The compound was dissolved in DMSO to give a solution containing 5 mg/mL. Tubes were stored at −20° C. until required. On the day of testing thawed solutions were vortex mixed to ensure homogeneity. 30 μL of solution was removed and added to 570 μL of sterile water in a separate sterile Eppendorf. […] Growth was assessed by monitoring the optical density at 485 nm for each well. […] MICs are recorded as mg/L.
Measured MIC grade, A. TERREUS 49, YAG media by item

>>> measured_result("Cc1ccc(COCCC2=NN=C(N)SC2)cc1")
"4 (4: <0.2 mg/L)"

Could you now consider this next compound?
Any idea what its MIC grade, A. TERREUS 49, YAG media is? The compound is `COCCCCCCCC1=NN=C(N)SC1`
4 (4: <0.2 mg/L)

###

Measured MIC grade, A. TERREUS 49, RPMI media by item
System: A. terreus 49
Assay: Minimum inhibitory concentration, RPMI medium
Type: cell-based
Details: banded MIC grade

>>> measured_result("NC1=NN=C(CCCCOCc2ccc(Cl)cc2F)CS1")
"3 (3: 1-5 mg/L)"

Any idea what its MIC grade, A. TERREUS 49, RPMI media is? The compound is `NC1=NN=C(CCCCOCc2ccc(Cl)c(F)c2)CS1`
3 (3: 1-5 mg/L)

Any idea what its MIC grade, A. TERREUS 49, RPMI media is? The compound is `NC1=NN=C(CCCCOCc2cccc(C(F)(F)F)c2)CS1`
2 (2: 5-20 mg/L)

Any idea what its MIC grade, A. TERREUS 49, RPMI media is? The compound is `NC1=NN=C(CCCCOCc2cccc(Cl)c2)CS1`
3 (3: 1-5 mg/L)

Any idea what its MIC grade, A. TERREUS 49, RPMI media is? The compound is `NC1=NN=C(CCCCOCc2ccccc2C(F)(F)F)CS1`
1 (1: ≥20 mg/L)

###

Test system: A. terreus
Experiment: Minimum inhibitory concentration, RPMI medium
Format: cell-based
Settings: banded MIC grade
Measurement Name: MIC grade, A. TERREUS, RPMI media

>>> measured_result("NC1=NN=C(CCCCCOc2ccccn2)CS1")
"4 (4: <1 mg/L)"
>>> measured_result("NC1=NN=C(CCCCOCc2ccccc2CCc2ccccc2)CS1")
"2 (2: 5-20 mg/L)"
>>> measured_result("Cc1cc(COCCCCC2=NN=C(N)SC2)ccc1F")
"3 (3: 1-5 mg/L)"
>>> measured_result("NC1=NN=C(CCCCOCCc2ccccc2)CS1")
"2 (2: 5-20 mg/L)"

Any idea what its MIC grade, A. TERREUS, RPMI media is? The compound is `NC1=NN=C(CCCCOCc2cc(F)ccc2F)CS1`
2 (2: 5-20 mg/L)

Any idea what its MIC grade, A. TERREUS, RPMI media is? The compound is `NC1=NN=C(CCCCOCc2cccc(Br)c2)CS1`
3 (3: 1-5 mg/L)

Any idea what its MIC grade, A. TERREUS, RPMI media is? The compound is `NC1=NN=C(CCCCOCCCc2ccc(F)cc2F)CS1`
2 (2: 5-20 mg/L)

Any idea what its MIC grade, A. TERREUS, RPMI media is? The compound is `NC1=NN=C(CCCCOCc2cccc(-c3ccccc3)c2)CS1`
2 (2: 5-20 mg/L)

Any idea what its MIC grade, A. TERREUS, RPMI media is? The compound is `NC1=NN=C(CCCCOCc2cccc(C3CC3)c2)CS1`
2 (2: 5-20 mg/L)

Any idea what its MIC grade, A. TERREUS, RPMI media is? The compound is `Cc1cccc(COCCCCC2=NN=C(N)SC2)c1`
2 (2: 5-20 mg/L)

Any idea what its MIC grade, A. TERREUS, RPMI media is? The compound is `NC1=NN=C(CCCCOCc2ccc(Cl)cc2F)CS1`
3 (3: 1-5 mg/L)

Any idea what its MIC grade, A. TERREUS, RPMI media is? The compound is `NC1=NN=C(CCCCOCc2cccc(Cl)c2)CS1`
3 (3: 1-5 mg/L)

Any idea what its MIC grade, A. TERREUS, RPMI media is? The compound is `CCc1ccc(OCCCCC2=NN=C(N)SC2)cc1`
3 (3: 1-5 mg/L)
